Here the recorded abundance fitness is given for each entry.
B1: POU domain, class 2, transcription factor 1, residues 285 to 354; numbered along this chain, P14859 (parent)
chain: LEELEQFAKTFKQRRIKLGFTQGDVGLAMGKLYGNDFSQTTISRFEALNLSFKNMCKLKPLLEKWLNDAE

- Variants of: B1
- PROTOCOL_SUMMARY: abundance fitness (aPCA) (normalised: wild type 0, dead -1); higher = more abundant; growth selection in yeast, the domain comes from the species named
- MEASUREMENT_CONTEXT: Homo sapiens

- VARIANT_DESCRIPTOR: "T40M"
  abundance fitness: -0.059

Entry K31D has what abundance fitness?
-0.029

Entry L32H : reported abundance fitness = ?
-0.004

// query abundance fitness value for entry V25S
-0.843

Bench note: what abundance fitness did K12I show?
-0.007

What value of abundance fitness has been reported for the following variant? E70W
0.071

Find the recorded abundance fitness belonging to R15T and report it.
-1.03

Reported abundance fitness for T41R : what is it?
-0.098

Find the recorded abundance fitness belonging to F7W and report it.
0.123

Entry K12H has what abundance fitness?
-0.084

I'd like to know its abundance fitness. The variant in question is L58A
-0.062

Give its abundance fitness value. Item: L27V
0.003
